Measured values drawn from ChEMBL document CHEMBL1944603 for this set.

Tested on: Klebsiella pneumoniae
Assay: Antimicrobial activity against Klebsiella pneumoniae at 75 ug/ml by agar diffusion assay
Type: functional
value.type: inhibition zone (IZ)
Give the figure together with its unit, number first.

Field: example entries. Status: answers known.
# input compound: `COC(=O)[C@]12Cc3c([nH]c4ccccc34)[C@@H](c3ccc(OC)cc3)N1[C@@H]1c3c(ccc4ccccc34)OC[C@@H]1C2` ; wanted: its inhibition zone (IZ)
18 mm

Dear colleague, I am looking for the recorded inhibition zone (IZ) of the following compound: `COC(=O)[C@@]1(Cc2c[nH]c3ccccc23)C[C@H]2COc3ccccc3[C@H]2N1`
21 mm

Which inhibition zone (IZ) is reported for this compound? `COC(=O)[C@]12Cc3c([nH]c4ccccc34)[C@@H](c3ccc(C)cc3)N1[C@@H]1c3ccccc3OC[C@@H]1C2`
18 mm

I am curious: what inhibition zone (IZ) value has been reported for `COC(=O)[C@]12Cc3c([nH]c4ccccc34)[C@@H](c3ccccc3)N1[C@@H]1c3ccccc3OC[C@@H]1C2` ?
19 mm

# inhibition zone (IZ) lookup, item `COC(=O)[C@]12Cc3c([nH]c4ccccc34)[C@@H](c3ccc(OC)cc3)N1[C@@H]1c3ccccc3OC[C@@H]1C2`
19 mm

Return reported inhibition zone (IZ); argument: `COC(=O)[C@]12Cc3c([nH]c4ccccc34)[C@@H](c3ccc(Cl)cc3)N1[C@@H]1c3ccccc3OC[C@@H]1C2`
25 mm

// next entry
# get_value(readout='inhibition zone (IZ)', item= `COC(=O)[C@@]1(Cc2c[nH]c3ccccc23)C[C@H]2COc3ccc4ccccc4c3[C@H]2N1` )
20 mm

----------
Test system: Fusarium oxysporum
Assay: Antifungal activity against Fusarium oxysporum
Assay type: functional
Entries annotated with measured MIC
Numeric answer only, unit µg/mL assumed.

Check out these entries, answers already filled in.
Notebook: pull reported MIC for Fusarium oxysporum, entry `COC(=O)[C@]12Cc3c([nH]c4ccccc34)[C@@H](c3ccc(OC)cc3)N1[C@@H]1c3c(ccc4ccccc34)OC[C@@H]1C2`
100

Give the reported MIC for `COC(=O)Nc1nc2ccccc2[nH]1` (system: Fusarium oxysporum).
20

Missing value: MIC, Fusarium oxysporum, entry `COC(=O)[C@]12Cc3c([nH]c4ccccc34)[C@@H](c3ccc(C)cc3)N1[C@@H]1c3c(ccc4ccccc34)OC[C@@H]1C2` . Fill in?
85

Kindly consider the entry below.
// map `COC(=O)[C@]12Cc3c([nH]c4ccccc34)[C@@H](c3ccccc3)N1[C@@H]1c3ccccc3OC[C@@H]1C2` to recorded MIC (system: Fusarium oxysporum)
30

----------
Tested on: Radical scavenging activity
Test: Antioxidant activity assessed as DPPH free radical scavenging activity at 1000 ug by spectrophotometer
Format: functional
value.type: Activity (%)
Give just the number in %; leave the unit off.

Reference set (3 entries):
API: value(readout= Activity, system= Radical scavenging activity, query= `COC(=O)[C@]12Cc3c([nH]c4ccccc34)[C@@H](c3ccc(Cl)cc3)N1[C@@H]1c3ccccc3OC[C@@H]1C2` )
68

Form entry - test system: Radical scavenging activity; read-out: Activity; compound: `COC(=O)[C@@]1(Cc2c[nH]c3ccccc23)C[C@H]2COc3ccccc3[C@H]2N1`
64

Activity of `COC(=O)[C@]12Cc3c([nH]c4ccccc34)[C@@H](c3cccc([N+](=O)[O-])c3)N1[C@@H]1c3ccccc3OC[C@@H]1C2` on Radical scavenging activity?
70

Further cases:
Lab request: please report Activity under test system Radical scavenging activity for `COC(=O)[C@]12Cc3c([nH]c4ccccc34)[C@@H](c3ccccc3)N1[C@@H]1c3ccccc3OC[C@@H]1C2`
70

Recorded Activity for `COC(=O)[C@]12Cc3c([nH]c4ccccc34)[C@@H](c3ccccc3)N1[C@@H]1c3c(ccc4ccccc34)OC[C@@H]1C2` with Radical scavenging activity, please?
69

Given the entry `COC(=O)[C@]12Cc3c([nH]c4ccccc34)[C@@H](c3ccc(C)cc3)N1[C@@H]1c3c(ccc4ccccc34)OC[C@@H]1C2` , what Activity was observed with Radical scavenging activity?
87

For Radical scavenging activity, provide Activity of `COC(=O)[C@]12Cc3c([nH]c4ccccc34)[C@@H](c3ccc(Cl)cc3)N1[C@@H]1c3c(ccc4ccccc34)OC[C@@H]1C2` please.
75

Param readout= Activity; system= Radical scavenging activity; entry= `COC(=O)[C@@]1(Cc2c[nH]c3ccccc23)C[C@H]2COc3ccc4ccccc4c3[C@H]2N1` ; returns value.
66

State its Activity on Radical scavenging activity: `COC(=O)[C@]12Cc3c([nH]c4ccccc34)[C@@H](c3ccc(OC)cc3)N1[C@@H]1c3ccccc3OC[C@@H]1C2`
68

----------
Test system: Klebsiella pneumoniae
Assay: Antimicrobial activity against Klebsiella pneumoniae at 100 ug/ml by agar diffusion assay
Type: functional
value.type: inhibition zone (IZ) (mm)
Please give a number only; it is taken to be in mm.

So what does the record say about inhibition zone (IZ) for `COC(=O)[C@@]1(Cc2c[nH]c3ccccc23)C[C@H]2COc3ccc4ccccc4c3[C@H]2N1` ?
23

What inhibition zone (IZ) value was documented for this molecule, `COC(=O)[C@]12Cc3c([nH]c4ccccc34)[C@@H](c3ccc(OC)cc3)N1[C@@H]1c3c(ccc4ccccc34)OC[C@@H]1C2` ?
20

Quick one: inhibition zone (IZ) of `COC(=O)[C@]12Cc3c([nH]c4ccccc34)[C@@H](c3ccc(C)cc3)N1[C@@H]1c3c(ccc4ccccc34)OC[C@@H]1C2` ?
21

***
Report inhibition zone (IZ) for `COC(=O)[C@]12Cc3c([nH]c4ccccc34)[C@@H](c3cccc([N+](=O)[O-])c3)N1[C@@H]1c3ccccc3OC[C@@H]1C2` please.
36

Bench note: what inhibition zone (IZ) did `COC(=O)[C@]12Cc3c([nH]c4ccccc34)[C@@H](c3ccc(Cl)cc3)N1[C@@H]1c3ccccc3OC[C@@H]1C2` show?
30

----------
System: Pseudomonas aeruginosa
Test: Antimicrobial activity against Pseudomonas aeruginosa at 75 ug/ml by agar diffusion assay
Assay type: functional
Output label 1 for inhibition zone (IZ) not less than 20 mm; output label 0 otherwise.

Observe how each entry below is paired with its result.
Tell me whether inhibition zone (IZ) is at least 20 mm here: `COC(=O)[C@]12Cc3c([nH]c4ccccc34)[C@@H](c3cccc([N+](=O)[O-])c3)N1[C@@H]1c3ccccc3OC[C@@H]1C2`
label 1

Decide: inhibition zone (IZ) of `COC(=O)[C@]12Cc3c([nH]c4ccccc34)[C@@H](c3ccc(C)cc3)N1[C@@H]1c3c(ccc4ccccc34)OC[C@@H]1C2` >= 20 mm?
label 0

Decide: is the reported value of inhibition zone (IZ) for `COC(=O)[C@@]1(Cc2c[nH]c3ccccc23)C[C@H]2COc3ccccc3[C@H]2N1` equal to or greater than 20 mm?
label 1

In plain terms: is recorded inhibition zone (IZ) at least 20 mm for `COC(=O)[C@]12Cc3c([nH]c4ccccc34)[C@@H](c3cccc([N+](=O)[O-])c3)N1[C@@H]1c3c(ccc4ccccc34)OC[C@@H]1C2` ?
label 1

Does `CN(C)[C@@H]1C(O)=C(C(N)=O)C(=O)[C@@]2(O)C(O)=C3C(=O)c4c(O)cccc4[C@@](C)(O)[C@H]3C[C@@H]12` have a reported inhibition zone (IZ) of at least 20 mm?
label 1

Is the recorded value of inhibition zone (IZ) equal to or greater than 20 mm for this compound? `COC(=O)[C@]12Cc3c([nH]c4ccccc34)[C@@H](c3ccc(C)cc3)N1[C@@H]1c3ccccc3OC[C@@H]1C2`
label 0

Given `COC(=O)[C@]12Cc3c([nH]c4ccccc34)[C@@H](c3ccc(Cl)cc3)N1[C@@H]1c3ccccc3OC[C@@H]1C2` , state whether its inhibition zone (IZ) is at least 20 mm.
label 1

In plain terms: is recorded inhibition zone (IZ) at least 20 mm for `COC(=O)[C@]12Cc3c([nH]c4ccccc34)[C@@H](c3ccc(OC)cc3)N1[C@@H]1c3ccccc3OC[C@@H]1C2` ?
label 0

Quick check: does `COC(=O)[C@]12Cc3c([nH]c4ccccc34)[C@@H](c3ccc(OC)cc3)N1[C@@H]1c3c(ccc4ccccc34)OC[C@@H]1C2` have inhibition zone (IZ) greater than or equal to 20 mm?
label 0

New cases:
Please tell me: is the compound `COC(=O)[C@]12Cc3c([nH]c4ccccc34)[C@@H](c3ccccc3)N1[C@@H]1c3c(ccc4ccccc34)OC[C@@H]1C2` at or over 20 mm in terms of inhibition zone (IZ)?
label 0

----------
Test system: Klebsiella pneumoniae
Assay: Antimicrobial activity against Klebsiella pneumoniae at 75 ug/ml by agar diffusion assay
Type: functional
Overview of recorded inhibition zone (IZ) for various compounds
State the value with its unit after it.

Observe how each entry below is paired with its result.
Given the entry `COC(=O)[C@]12Cc3c([nH]c4ccccc34)[C@@H](c3ccccc3)N1[C@@H]1c3c(ccc4ccccc34)OC[C@@H]1C2` , report its measured inhibition zone (IZ).
17 mm

Bench note: what inhibition zone (IZ) did `COC(=O)[C@]12Cc3c([nH]c4ccccc34)[C@@H](c3cccc([N+](=O)[O-])c3)N1[C@@H]1c3c(ccc4ccccc34)OC[C@@H]1C2` show?
22 mm

---
Which value of inhibition zone (IZ) has been reported for `COC(=O)[C@]12Cc3c([nH]c4ccccc34)[C@@H](c3ccc(Cl)cc3)N1[C@@H]1c3c(ccc4ccccc34)OC[C@@H]1C2` in the records?
22 mm

Using the record for `COC(=O)[C@]12Cc3c([nH]c4ccccc34)[C@@H](c3cccc([N+](=O)[O-])c3)N1[C@@H]1c3ccccc3OC[C@@H]1C2` , report its inhibition zone (IZ).
25 mm

Need inhibition zone (IZ), item CN(C)[C@@H]1C(O)=C(C(N)=O)C(=O)[C@@]2(O)C(O)=C3C(=O)c4c(O)cccc4[C@@](C)(O)[C@H]3C[C@@H]12 [TETRACYCLINE]
28 mm

What value of inhibition zone (IZ) has been recorded for this entry: `COC(=O)[C@]12Cc3c([nH]c4ccccc34)[C@@H](c3ccc(C)cc3)N1[C@@H]1c3c(ccc4ccccc34)OC[C@@H]1C2`
17 mm
